# System: DRG neurons
# measurementProtocol: cells
# Assay type: cell-based
# conditionsUsed: Rattus norvegicus, DRG neuron, 10 min, read-out: 45Ca Influx EC50
pEC50: −log10 of the molar value.
Returns YES if the recorded pEC50 is greater than or equal to 6, and NO otherwise.

compound="COc1cc(CC(=O)NCCCc2ccc(C)c(C)c2)ccc1OCCN [DA-5018, reference compound]" class=YES
compound="COc1cc(CNC(=S)NCC(COC(=O)C(C)(C)C)Cc2ccc(C(C)(C)C)cc2)ccc1OCC(=O)O (stereo not shown) [19b]" class=NO
compound="COc1cc(CNC(=S)NCC(COC(=O)C(C)(C)C)Cc2ccc(C(C)(C)C)cc2)ccc1OCCN (stereo not shown) [36b]" class=YES
compound="COc1cc(CC(=O)NCC(COC(=O)C(C)(C)C)Cc2ccc(C)c(C)c2)ccc1OCCN (stereo not shown) [28a]" class=NO
compound="COc1cc(CNC(=S)NCC(COC(=O)C(C)(C)C)Cc2ccc(C)c(C)c2)ccc1OCCN (stereo not shown) [36a]" class=YES
compound="COc1cc(CNC(=S)NCC(COC(=O)C(C)(C)C)Cc2ccc(C)c(C)c2)ccc1OCC(=O)O (stereo not shown) [19a]" class=NO
compound="COc1cc(CNC(=O)CCCC/C=C/C(C)C)ccc1O [Capsaicin, reference compound]" class=YES
compound="COc1cc(CNC(=S)NCC(COC(=O)C(C)(C)C)Cc2ccc(C)c(C)c2)ccc1OC(=O)CCC(=O)O (stereo not shown) [23a]" class=NO
compound="COc1cc(CNC(=S)NCC(COC(=O)C(C)(C)C)Cc2ccc(C(C)(C)C)cc2)ccc1OC(=O)CCC(=O)O (stereo not shown) [23b]" class=NO
